Tested on: 233499-124-R-J3-PDC complex spheroid viability;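 also: spheroids exposed to the drug combinations for seven days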
method_summary: Anticancer human tumor 233499-124-R-J3-PDC patient-derived colon adenocarcinoma cell line growth inhibition [CLK]
setup_conditions: curve of first compound; second compound 0.1 µM
Consider the following compounds and their measured pIC50 readings.
Scale: pIC50 equals -log10([C]), with [C] in mol/L.

{"compound": "C=C(F)C(=O)N1CCN(c2nc(OCC3CCCN3C)nc3c2CCN(c2cccc4cccc(Cl)c24)C3)CC1CC#N (stereo unspecified) + CNC(=O)c1ccc(Nc2nc(OC3CCCC3)c3c(-c4ccc5nc(C)oc5c4)c[nH]c3n2)c(OC)c1", "property": "pIC50", "numeric_readout": 5.33}

// returns reported pIC50 for input CC(C)CC(NC(=O)C(Cc1ccccc1)NC(=O)c1cnccn1)B(O)O (stereo unspecified) + CN1CCN(c2cc(C(=O)Nc3cc4cc(-c5cnn(C)c5)ccc4cn3)ccn2)CC1
8.30

// returns reported pIC50 for input Nc1ccccc1NC(=O)c1ccc(CNC(=O)OCc2cccnc2)cc1 + CNC(=O)c1ccc(Nc2nc(OC3CCCC3)c3c(-c4ccc5nc(C)oc5c4)c[nH]c3n2)c(OC)c1
6.14

// returns reported pIC50 for input CC1COCCN1c1cc(C2(S(C)(=N)=O)CC2)nc(-c2ccnc3[nH]ccc23)n1 (stereo unspecified) + CNC(=O)c1ccc(Nc2nc(OC3CCCC3)c3c(-c4ccc5nc(C)oc5c4)c[nH]c3n2)c(OC)c1
5.06

// returns reported pIC50 for input NC(=O)C(=Cn1cnc(-c2cc(C(F)(F)F)cc(C(F)(F)F)c2)n1)c1cncnc1 + CN1CCN(c2cc(C(=O)Nc3cc4cc(-c5cnn(C)c5)ccc4cn3)ccn2)CC1
7.11

// returns reported pIC50 for input CCc1c2c(nc3ccc(O)cc13)-c1cc3c(c(=O)n1C2)COC(=O)[C@]3(O)CC + CN1CCN(c2cc(C(=O)Nc3cc4cc(-c5cnn(C)c5)ccc4cn3)ccn2)CC1
6.33

// returns reported pIC50 for input COC1C=CCC(C)C(C)S(=O)(=O)NC(=O)c2ccc3c(c2)N(CC2CCC21)CC1(CCCc2cc(Cl)ccc21)CO3 (stereo unspecified) + CNC(=O)c1ccc(Nc2nc(OC3CCCC3)c3c(-c4ccc5nc(C)oc5c4)c[nH]c3n2)c(OC)c1
6.87

// returns reported pIC50 for input Nc1ccn(C2OC(CO)C(O)C2(F)F)c(=O)n1 (stereo unspecified) + CN1CCN(c2cc(C(=O)Nc3cc4cc(-c5cnn(C)c5)ccc4cn3)ccn2)CC1
6.66
